Reported IC50 values for the following compounds.
# targetDesc: B-Raf (V600E) (SEQ. ID NO: 4) kinase (Homo sapiens (Human), UniProt P15056, V600E)
# Sequence (P15056 416-766 V600E): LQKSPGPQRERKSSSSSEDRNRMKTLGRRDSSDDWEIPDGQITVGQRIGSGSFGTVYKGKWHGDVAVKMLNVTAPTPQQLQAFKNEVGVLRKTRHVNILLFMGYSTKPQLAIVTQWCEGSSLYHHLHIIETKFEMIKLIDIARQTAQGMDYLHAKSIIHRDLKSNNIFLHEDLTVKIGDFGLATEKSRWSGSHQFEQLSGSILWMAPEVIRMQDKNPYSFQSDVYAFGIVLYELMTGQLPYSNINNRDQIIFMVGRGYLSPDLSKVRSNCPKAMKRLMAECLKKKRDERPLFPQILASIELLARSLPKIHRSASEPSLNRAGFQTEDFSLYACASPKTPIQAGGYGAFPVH
# protocolNotes: Biochemical Assay for B-Raf (V600E) (1)
# experimentalParameters: Table J, BRAF V600E, assay version (1); read-out: BRAF VE (1) IC50

Solved cases below.
[
  {
    "molecularString": "Cc1ncc(NC(=O)c2ccnc(C3(C#N)CC3)c2)cc1-c1nccc(-c2ccnc(NC(=O)C3CC3)c2)n1",
    "dataValue": "≤ 100 nM"
  },
  {
    "molecularString": "COCC(=O)Nc1cc(-c2cncc(-c3cc(NC(=O)c4ccnc(C(C)(C)C#N)c4)ccc3C)n2)ccn1",
    "dataValue": "≤ 100 nM"
  },
  {
    "molecularString": "Cc1cc(-c2cc(NC(=O)c3ccnc(C(F)(F)F)c3)ccc2C)cc(-c2ccnc3c2CC(=O)N3)n1",
    "dataValue": "≤ 100 nM"
  }
]

Please give the measured IC50 for this compound: `COC(=O)Nc1cc(-c2cc(-c3cc(NC(=O)c4ccnc(C(C)(C)F)c4)cnc3C)ccn2)ccn1`
≤ 100 nM

Reference source: patent US12319655B2
